# STUDY_SYSTEM: T1, human 5T4 antigen (human, UniProt Q13641 32-355, limits assumed)
# T1 sequence: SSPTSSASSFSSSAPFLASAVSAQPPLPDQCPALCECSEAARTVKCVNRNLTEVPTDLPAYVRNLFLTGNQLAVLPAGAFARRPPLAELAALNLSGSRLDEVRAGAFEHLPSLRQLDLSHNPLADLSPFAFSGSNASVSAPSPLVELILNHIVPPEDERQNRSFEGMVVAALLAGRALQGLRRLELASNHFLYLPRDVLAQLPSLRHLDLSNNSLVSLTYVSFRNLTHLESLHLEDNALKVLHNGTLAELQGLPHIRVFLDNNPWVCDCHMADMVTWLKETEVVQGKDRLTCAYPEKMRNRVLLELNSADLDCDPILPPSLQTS
# ASSAY_NAME: ELISA; inhibition of biotinylated chimeric A1 antibody binding to human 5T4
METRIC: IC50

Give the measured IC50 of chimeric A1 antibody (antibody, V domains shown, Biotinylated when used as the labelled competitor in Table 13; the site is not stated., also called ChiA1; ChiA1 γ4) VH: QIQLVQSGPELKKPGETVKISCKASGYTFTNFGMNWVKQGPGEGLKWMGWINTNTGEPRYAEEFKGRCAFSLETTASTAYLQINNLKNEDTATYFCARDWDGAYFFDYWGQGTTLTVSS VL: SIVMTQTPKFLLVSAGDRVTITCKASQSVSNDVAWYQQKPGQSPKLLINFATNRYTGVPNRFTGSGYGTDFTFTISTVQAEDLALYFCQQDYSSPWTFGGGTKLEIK . 16 to 20 nM
